FYI, the data here is from patent US8728442B2.

- System: Penicillium expansum
- Test: Fungicidal activity, fumigation of Penicillium expansum spore plates in sealed 6 L containers
- Assay type: cell-based
- Run Conditions: Penicillium expansum, 24 h, Experiment #6; 24 h exposure, further 48 h incubation; read-out: Amount for 100% inhibition (μg compound/L air)
- Method: Experiments were conducted to determine the fungicidal activity of several compounds of the invention using Penicillium expansum as the test organism. Plates of potato dextrose agar were streaked with a standard culture of Penicillium expansum spores (0.1 ml of a 2×10^5 cfu/ml) and placed in sealed plastic containers (nominal volume 6 liters). The containers (Rubbermaid) were fitted with a small fan (Radio Shack 12VDC) in the lids to ensure good distribution of the test compounds. […]
The entries below are paired with their reported MIC.
Observation Type: MIC (ng/mL)

                                   compound  observation_type  readout_unit  relation_operator  number
0                        CN(N=O)C(=O)CC1CC1               MIC         ng/mL                  =       5
1  CCN(N=O)C(=O)C(C)C [Compound 11, N-ethyl-N-nitrosoisobutyramide]               MIC         ng/mL                  >    14.7
2  COCC(=O)N(C)N=O [Compound 6, 2-methoxy-N-methyl-N-nitrosoacetamide]               MIC         ng/mL                  =     2.2
3                              O=NN1CCCC1=O               MIC         ng/mL                  >    16.3
